- Test system: FADD−/− Jurkat cells
- method_summary: Necroptosis inhibition assay, TNF-α-induced necroptosis (CellTiter-Glo 2.0)
- Type: cell-based, human
- condition_info: compound 1 μM; TNF-α 15 ng/mL
Record form. Attribute: Necroptosis inhibition assay (Rescue %) 1 μM. Fill in for each entry.
Numbers only, in %.

// worked examples, Necroptosis inhibition assay (Rescue %) 1 μM included
Nc1ncc(-c2cnn(C3CCN(C(=O)C4CCN(c5ccc6c(c5)C(=O)N(C5CCC(=O)NC5=O)C6=O)CC4)CC3)c2)nc1C(=O)OC(C(=O)Nc1ccc(F)cc1)c1ccccc1 (centres unmarked) | 33.16
Nc1ncc(-c2cnn(C3CCN(C(=O)COCCOCCNC(=O)CNc4ccc5c(c4)C(=O)N(C4CCC(=O)NC4=O)C5=O)CC3)c2)nc1C(=O)O[C@@H](C(=O)Nc1ccc(F)cc1)c1ccccc1 (some centres unmarked) | 77.85
Nc1ncc(C2=CCN(CCOCCOCCNC(=O)CNc3ccc4c(c3)C(=O)N(C3CCC(=O)NC3=O)C4=O)CC2)nc1C(=O)O[C@@H](C(=O)Nc1ccc(F)cc1)c1ccccc1 (some centres unmarked) | 24.34
Nc1ncc(-c2cnn(C3CCN(CCOCCOCCNC(=O)C4CN(c5ccc6c(c5)C(=O)N(C5CCC(=O)NC5=O)C6=O)C4)CC3)c2)nc1C(=O)O[C@@H](C(=O)Nc1ccc(F)cc1)c1ccccc1 (some centres unmarked) | 16.8

Please look at the following compound next.
Problem: Please state recorded Necroptosis inhibition assay (Rescue %) 1 μM (tested on FADD−/− Jurkat cells) of Nc1ncc(-c2cnn(C3CCN(CCCCCCNC(=O)COc4cccc5c4C(=O)N(C4CCC(=O)NC4=O)C5=O)CC3)c2)nc1C(=O)O[C@@H](C(=O)Nc1ccc(F)cc1)c1ccccc1 (some centres unmarked)
Solution: 91.87

---

- tested_on: MLKL (Homo sapiens, UniProt Q8NB16)
- Sequence (Q8NB16 whole entry): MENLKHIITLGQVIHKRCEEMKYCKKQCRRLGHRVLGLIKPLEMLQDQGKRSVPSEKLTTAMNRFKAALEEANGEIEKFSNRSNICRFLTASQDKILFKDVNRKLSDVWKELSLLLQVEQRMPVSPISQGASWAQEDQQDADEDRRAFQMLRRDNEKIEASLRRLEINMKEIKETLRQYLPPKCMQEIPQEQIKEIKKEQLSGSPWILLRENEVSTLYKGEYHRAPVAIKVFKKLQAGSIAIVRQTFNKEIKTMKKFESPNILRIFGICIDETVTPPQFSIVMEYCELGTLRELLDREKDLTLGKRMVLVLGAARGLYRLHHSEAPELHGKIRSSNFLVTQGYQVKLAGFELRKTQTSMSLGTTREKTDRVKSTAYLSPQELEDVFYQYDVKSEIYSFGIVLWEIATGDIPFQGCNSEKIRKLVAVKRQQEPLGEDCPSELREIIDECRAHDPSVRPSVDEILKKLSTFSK
- method_summary: Measurement of binding affinity with MLKL receptor (competitive binding assay, Kd)
- Design: made in house; host or cells: HEK 293 cell line (T7 phage in E. coli BL21-derived host is also described)
Where a name gives a salt, the structure may show the parent alone.
Record form. Attribute: pKd. Fill in for each entry.
Give bare numbers, as −log10 of the molar value.

// worked examples, pKd included
Cc1ccc(NC(=O)[C@H](OC(=O)c2nc(-c3cnn(C4CCNCC4)c3)cnc2N)c2ccccc2)cc1 [TDH-319, hydrochloride] | 9.09
Nc1ncc(-c2cnn(C3CCNCC3)c2)nc1C(=O)O[C@@H](C(=O)Nc1ccc(C(F)(F)F)cc1)c1ccccc1 [TDH-459, hydrochloride] | 8.19

Problem: What does the data say about its pKd? Entry: Nc1ncc(-c2ccc(N3CCN(CC4CCN(C(=O)COc5ccc6c(c5)C(=O)N(C5CCC(=O)NC5=O)C6=O)CC4)CC3)nc2)nc1C(=O)OC(C(=O)Nc1ccc(F)cc1)c1ccccc1 (stereo not drawn)
Solution: 7.11

---

- System: FADD−/− Jurkat cells
- method_summary: Necroptosis inhibition assay, TNF-α-induced necroptosis (CellTiter-Glo 2.0)
- Format: cell-based, human
- condition_info: compound 1 μM; TNF-α 15 ng/mL
measurement_type: Necroptosis inhibition assay (Rescue %) 1 μM

// worked examples, Necroptosis inhibition assay (Rescue %) 1 μM included
Nc1ncc(-c2cnn(C3CCN(CCCCCCNC(=O)CNc4ccc5c(c4)C(=O)N(C4CCC(=O)NC4=O)C5=O)CC3)c2)nc1C(=O)O[C@@H](C(=O)Nc1ccc(F)cc1)c1ccccc1 (stereo partly shown) | 75.06%
Nc1ncc(-c2cnn(C3CCN(C(=O)COCCOCCNc4cccc5c4C(=O)N(C4CCC(=O)NC4=O)C5=O)CC3)c2)nc1C(=O)O[C@@H](C(=O)Nc1ccc(F)cc1)c1ccccc1 (stereo partly shown) | 25.6%
Nc1ncc(-c2cnn(C3CCN(CCCCCCCCCCNC(=O)CNc4ccc5nnn(C6CCC(=O)NC6=O)c(=O)c5c4)CC3)c2)nc1C(=O)O[C@@H](C(=O)Nc1ccc(F)cc1)c1ccccc1 (stereo partly shown) | 47.27%
Nc1ncc(-c2cnn([C@H]3CCN(CCOCCOCCNC(=O)CNc4cccc5c4C(=O)N(C4CCC(=O)NC4=O)C5=O)C3)c2)nc1C(=O)OC(C(=O)Nc1ccc(F)cc1)c1ccccc1 (stereo partly shown) | 16.13%
Nc1ncc(-c2cnn(C3CCN(CCOC4CCN(C(=O)CCc5cccc6c5C(=O)N(C5CCC(=O)NC5=O)C6=O)CC4)CC3)c2)nc1C(=O)O[C@@H](C(=O)Nc1ccc(F)cc1)c1ccccc1 (stereo partly shown) | 49.61%

Okay, here is my list. What is Necroptosis inhibition assay (Rescue %) 1 μM for each of these?
1. Nc1ncc(-c2cnn(C3CCN(CC4CCN(C(=O)CC5CCN(c6cccc7c6C(=O)N(C6CCC(=O)NC6=O)C7=O)CC5)CC4)CC3)c2)nc1C(=O)O[C@@H](C(=O)Nc1ccc(F)cc1)c1ccccc1 (stereo partly shown)
2. Nc1ncc(-c2cnn(C3CCN(CC4CCN(C(=O)CCc5cccc6c5C(=O)N(C5CCC(=O)NC5=O)C6=O)CC4)CC3)c2)nc1C(=O)O[C@@H](C(=O)Nc1ccc(F)cc1)c1ccccc1 (stereo partly shown)
3. Nc1ncc(-c2cnn(C3CCN(CCC4CCN(C(=O)COc5cccc6c5C(=O)N(C5CCC(=O)NC5=O)C6=O)CC4)CC3)c2)cc1C(=O)OC(C(=O)Nc1ccc(F)cc1)c1ccccc1 (stereo not shown)
4. Nc1ncc(C2=CCN(C(=O)CCCCCNC(=O)C3CN(c4ccc5c(c4)C(=O)N(C4CCC(=O)NC4=O)C5=O)C3)CC2)cc1C(=O)O[C@@H](C(=O)Nc1ccc(F)cc1)c1ccccc1 (stereo partly shown)
5. Nc1ncc(-c2cnn(C3CCN(C(=O)CC4CCN(C(=O)COc5ccc6c(c5)C(=O)N(C5CCC(=O)NC5=O)C6=O)CC4)CC3)c2)nc1C(=O)O[C@@H](C(=O)Nc1ccc(F)cc1)c1ccccc1 (stereo partly shown)
6. Nc1ncc(-c2cnn(C3CCN(CCOC4CCN(C(=O)CC5CCN(c6cccc7c6C(=O)N(C6CCC(=O)NC6=O)C7=O)CC5)CC4)CC3)c2)nc1C(=O)O[C@@H](C(=O)Nc1ccc(F)cc1)c1ccccc1 (stereo partly shown)
7. Nc1ncc(C2=CCN(C(=O)COCCOCCNC(=O)CNc3ccc4c(c3)C(=O)N(C3CCC(=O)NC3=O)C4=O)CC2)cc1C(=O)O[C@@H](C(=O)Nc1ccc(F)cc1)c1ccccc1 (stereo partly shown)

Solution:
61.24%
39.89%
61.06%
2.1%
50.8%
35.76%
5.02%
